Measured IC50 accompanies every entry in the list below.
molecular target: SARS-CoV-2 nsp14 (Severe acute respiratory syndrome coronavirus 2); construct: gene rep; assay: RapidFire MS methyltransferase assay; assay type: biochemical; conditions: SAM and RNA cap substrate at KM (SAM 1.0 µM); read-out: IC50

> print(dat)
                                   molecule  measurement
1  OC1C(CSc2nc3ccccc3s2)OC(n2cnc3c(NC4CCCC4)ncnc32)C1O (centres unmarked) [compound 20]     > 100 µM

Lab note: next molecule to report on.
Please fill in: IC50 reported for CN(C)c1ncnc2c1ncn2[C@@H]1O[C@H](CSc2nc3ccccc3s2)[C@@H](O)[C@H]1O [compound 19] = > 100 µM

====

Parameter: half-life. Scope: all listed entries.
experiment: in vitro; design: mouse liver microsomal stability; settings: liver microsomes; Mouse liver microsomes; read-out: Mouse liver Mic T1/2 / min

> print(dat)
                  compound.structure.string  endpoint.name  measurement
1  Nc1ncnc2c1ncn2[C@@H]1O[C@H](CSc2ccc3cccnc3c2)[C@@H](O)[C@H]1O      half-life     > 30 min

// half-life lookup, compound = `Cc1ccc2sc(SC[C@H]3O[C@@H](n4cnc5c(N)ncnc54)[C@H](O)[C@@H]3O)nc2c1` , result: 25.7 min

Sample `Cc1ccc2nc(SC[C@H]3O[C@@H](n4cnc5c(N)ncnc54)[C@H](O)[C@@H]3O)ccc2c1` ; half-life observed: > 30 min

# half-life of `Nc1ncnc2c1ncn2[C@@H]1O[C@H](CSc2nc3ccccc3o2)[C@@H](O)[C@H]1O` = > 30 min

Memo: `Nc1ncnn2c([C@@H]3O[C@H](CNS(=O)(=O)c4ccc5ccccc5c4)[C@@H](O)[C@H]3O)ccc12` , reported half-life: 9.9 min

GET /value?item= `Nc1ncnn2c([C@@H]3O[C@H](/C=C/c4nc5ccccc5s4)[C@@H](O)[C@H]3O)ccc12` &field=half-life returns > 30 min

====

target: HCoV-NL63 nsp14 (Human coronavirus NL63); experiment: RapidFire MS methyltransferase assay; assay type: biochemical
Sequence (P0C6X5 5568-6085): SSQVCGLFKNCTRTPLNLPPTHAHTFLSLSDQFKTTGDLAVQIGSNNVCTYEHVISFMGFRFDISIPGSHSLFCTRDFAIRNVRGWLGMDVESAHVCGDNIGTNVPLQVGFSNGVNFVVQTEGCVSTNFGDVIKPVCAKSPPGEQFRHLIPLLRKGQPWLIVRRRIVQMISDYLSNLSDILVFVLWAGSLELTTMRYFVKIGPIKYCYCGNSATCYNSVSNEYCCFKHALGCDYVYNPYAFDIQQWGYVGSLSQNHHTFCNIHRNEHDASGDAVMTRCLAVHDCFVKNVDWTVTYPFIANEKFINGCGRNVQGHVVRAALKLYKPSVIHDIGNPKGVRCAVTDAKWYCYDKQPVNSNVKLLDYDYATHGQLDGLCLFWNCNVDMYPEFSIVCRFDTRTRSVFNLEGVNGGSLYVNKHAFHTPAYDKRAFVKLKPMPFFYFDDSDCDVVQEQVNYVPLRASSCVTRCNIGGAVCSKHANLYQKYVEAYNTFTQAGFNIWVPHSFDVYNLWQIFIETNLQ
pIC50: −log10 of the molar value.
Respond with Yes for pIC50 values of 6 and above, No for values below.

> print(dat)
                  compound.structure.string  class.name
1  Cc1ccc2nc(SC[C@H]3O[C@@H](n4cnc5c(N)ncnc54)[C@H](O)[C@@H]3O)ccc2c1         Yes
2  Cc1ccc2nc(SC[C@H]3O[C@@H](n4cnc5c(N)ncnc54)[C@H](O)[C@@H]3O)sc2c1         Yes
3  C#Cc1cn([C@@H]2O[C@H](CSc3nc4ccccc4s3)[C@@H](O)[C@H]2O)c2ncnc(N)c12         Yes

State whether the measured pIC50 reaches 6, counting equality as reaching it, for `Cc1ccc2ccc(SC[C@H]3O[C@@H](n4cnc5c(N)ncnc54)[C@H](O)[C@@H]3O)nc2c1`
Yes

Decide: pIC50 of `CCCCCCSC[C@H]1O[C@@H](n2cnc3c(N)ncnc32)[C@H](O)[C@@H]1O` >= 6?
No

Could you verify whether the entry `N#Cc1cn([C@@H]2O[C@H](CSc3nc4ccccc4s3)[C@@H](O)[C@H]2O)c2ncnc(N)c12` shows pIC50 of no less than 6?
Yes

====

biological target: SARS-CoV-2 nsp14 (Severe acute respiratory syndrome coronavirus 2); construct: gene rep; test: RapidFire MS methyltransferase assay; format: biochemical; conditions: read-out: IC50
pIC50: −log10 of the molar value.
So basically: pIC50 at 6 or higher? That is 1 (yes). Lower than 6? That is 0 (no).

Example entries begin here.
> print(dat)
                                   compound  class.name
1  Nc1ncnc2c1ncn2[C@@H]1O[C@H](CSc2ccc3ccccc3c2)[C@@H](O)[C@H]1O [compound 6]     1 (yes)
2  Nc1ncnc2c1ncn2[C@@H]1O[C@H](COc2nc3ccccc3s2)[C@@H](O)[C@H]1O [compound 23]      0 (no)
3  Nc1ncnc2c1ncn2[C@@H]1O[C@H](CNc2nc3ccccc3s2)[C@@H](O)[C@H]1O [compound 24]      0 (no)

hey, is pIC50 for this one >= 6? Nc1ncnc2c1ncn2[C@@H]1O[C@H](CSc2cccn3cncc23)[C@@H](O)[C@H]1O [compound 12]
0 (no)
